system: Wolbachia pipientis; assay: Anti-Wolbachia Cell-Based Screen; type: functional; design: scale not given: in the data most compounds retested in dose-response had high values; conditions: 5 µM
Among all 48,000 compounds or so, about 13,000 (27%) showed an effect of 50% or more. The list shows a part of the results.
reported endpoint: Percent Effect (%)
The reply should contain only the number, in %.

// Percent Effect lookup, molecule = c1ccc(CCCn2cc(-c3nc(CN4CCOCC4)no3)nn2)cc1 , result: -30.42

The molecule identified as CC(NC(=O)NCCCn1cccn1)c1ccc2c(c1)NC(=O)CO2 (configuration not stated) registered its Percent Effect at -10.21

Given item COC(=O)CN(C(=O)c1ccoc1)c1cccc(F)c1 , the value recorded as its Percent Effect is 2.098

CC[C@@H]1N(Cc2ccc(F)cc2)CCC[C@]12CCC(=O)N2CCOC.O=C(O)C(F)(F)F yielded Percent Effect of 105

The recorded Percent Effect for entry COc1cc(-c2cnnc(NCCCOC(C)C)n2)cc(OC)c1OC equals 29.72

COCCN1C(=O)CCC12CCCN(Cc1ccccc1F)C2.O=C(O)C(F)(F)F.O=C(O)C(F)(F)F (configuration not stated) yielded Percent Effect of -19.88

The molecule listed as COc1ccc(-c2cc(N)ccn2)c(OC)c1OC shows Percent Effect equal to -25.01

The recorded Percent Effect for CSCc1nc(CCNC(=O)c2cnn(C(C)C)c2)cs1 is -0.3441

Recorded Percent Effect (molecule Cn1nnc2c1CCN(Cc1ccoc1)C2COCc1ccccc1.O=C(O)C(F)(F)F (configuration not stated) ): 14.93

What the record says about COC(=O)c1ccc(NC(C)c2ccc3c(c2)NC(=O)CO3)nn1 (configuration not stated) : Percent Effect is 109.1

The molecule COc1ccc(C)cc1C(C)NS(=O)(=O)c1ccc2c(c1)CCC(=O)N2 (configuration not stated) showed Percent Effect equal to -0.1201

COc1cc(-c2cc(N)ncn2)cc(OC)c1OC yielded Percent Effect of 113.5

Value of Percent Effect reported for the molecule COCCNC(=O)[C@H]1C[C@H]2OCC[C@H]2N(Cc2ccoc2)C1.O=C(O)C(F)(F)F is 2.424

// sample COCc1cc(CC2(NC3CCN(C)CC3)COC2)no1 , its Percent Effect was 4.63

Measured Percent Effect of CCn1ncnc1C(C)NC(=O)Cc1cc2c(cc1Cl)OCCO2 (configuration not stated) : 1.538

Record COc1cccc(NC(=O)NC(C)c2ccc3c(c2)CC(=O)N3)c1 (configuration not stated) , field Percent Effect: -1.814

Measured Percent Effect, COc1cc(N(C)Cc2cc(C(C)(C)C)n[nH]2)ncn1 : -14.87

Input COc1ccc(C(C)NS(=O)(=O)c2ccc3c(c2)CCC(=O)N3)cc1F (configuration not stated) . Output Percent Effect: 13.2

Consider COCCN1C[C@@H]2CN(Cc3cccc(F)c3)CCC[C@]2(C(=O)O)C1.O=C(O)C(F)(F)F.O=C(O)C(F)(F)F . Its measured Percent Effect is 4.566

The reported value for COc1cc(N2CCc3ncnc(-c4ccoc4)c3CC2)ncn1 in terms of Percent Effect is -1.629

Percent Effect for CC(NC(=O)Nc1ccncc1)c1ccc2c(c1)CC(=O)N2 (configuration not stated) is 6.994

Reported Percent Effect of COC(=O)c1ccc(NC(C)c2ccc3c(c2)CC(=O)N3)nn1 (configuration not stated) : 83.43
